assay: amyloid nucleation score (Sup35N fusion, yeast selection) (log enrichment); library NNK2; higher = more nucleation; inactive = no reads after selection;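 also: zero at mode of non-aggregating sequences after 7 days selection at 30°C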
measured_quantity: amyloid nucleation score

Before answering, review these 4 worked examples.
{"substance": "TCGRYSYSWVFSESKS", "amyloid nucleation score": "inactive"}
{"substance": "GAIIGIAGVPKGLSNSHSDG", "amyloid nucleation score": -0.606}
{"substance": "TSNRRTYGWHDQTCGQGVWY", "amyloid nucleation score": 1.1}
{"substance": "YKRRRWRVENRNGVSFSHTD", "amyloid nucleation score": 0.806}

Query: # return recorded amyloid nucleation score for entry SVADGAHFCYYNLYFGGFVY
Result: 4.24

Query: Complete the entry with amyloid nucleation score for LVNNGRVLSCYICV
Result: 9.17

Query: For the substance MFVHLGGTWMQR , report amyloid nucleation score.
Result: 5.13

Query: Item CPGRRTISFYSFSFVFRSMN : provide amyloid nucleation score
Result: inactive

Query: Report measured amyloid nucleation score; entry is LDEPRM
Result: 0.16

* * *

test: amyloid nucleation score (Sup35N fusion, yeast selection) (log enrichment); library NNK3; higher = more nucleation; inactive = no reads after selection
measured_quantity: amyloid nucleation score

Sample records with amyloid nucleation score:
{"substance": "SIQCSK", "data_value": "inactive"}
{"substance": "ARYRHGFTALRND", "data_value": "inactive"}
{"substance": "GVLTTALVGTCWPSTCFYGL", "data_value": "inactive"}
{"substance": "AAYADR", "data_value": 0.008}
{"substance": "IRRLQINRAKHAILLLHYNW", "data_value": "inactive"}

Query: Report amyloid nucleation score, nothing else, for this substance: ERRRVRP
Result: inactive

* * *

assay: amyloid nucleation score (Sup35N fusion, yeast selection) (log enrichment); library NNK2; higher = more nucleation; inactive = no reads after selection
I would appreciate it if you labelled entries Fulfilled when amyloid nucleation score is 0.1 or higher, otherwise Not fulfilled.

These solved cases illustrate the format of a correct answer.
{"substance": "RRSYFFLVTFTLDVRDMVCF", "category": "Fulfilled"}
{"substance": "NISGATMEVVIYHDAVCESN", "category": "Not fulfilled"}
{"substance": "LVCSNWCIVPFMYGTRHRKE", "category": "Fulfilled"}
{"substance": "LVVVKFTEVKALCFSVWGMG", "category": "Fulfilled"}
{"substance": "RLGWNGE", "category": "Not fulfilled"}
{"substance": "IYCCISEWSNHTWV", "category": "Fulfilled"}
{"substance": "PFSIVIVANFYIITYEACFL", "category": "Fulfilled"}
{"substance": "VDARALDMIVVRDQTFRCTM", "category": "Fulfilled"}
{"substance": "SISSGFFWKEAIKGSAVSLW", "category": "Fulfilled"}
{"substance": "VRWTRILVLIMFYAMSSTGT", "category": "Fulfilled"}

Query: Is amyloid nucleation score for IDCRELFVSLQVNRMLE at or above 0.1?
Result: Fulfilled

Query: For this substance, is measured amyloid nucleation score 0.1 or higher? SVSYSGDNH
Result: Not fulfilled

Query: Check if amyloid nucleation score >= 0.1 (inclusive). Item: KYWFDGYLGYF
Result: Not fulfilled

Query: Entry GCLLLPKGASHKIDYCGSDV : is its amyloid nucleation score no less than 0.1?
Result: Fulfilled

Query: In plain terms: is recorded amyloid nucleation score at least 0.1 for GVGEEGARVKWIVCNKCFFP ?
Result: Fulfilled

Query: Kindly determine if amyloid nucleation score recorded for FSLCDILVLVNTNAGWAAFD is above or exactly 0.1.
Result: Not fulfilled

Query: Quick check: does GRAYHESLSGDFVLFSSRRC have amyloid nucleation score greater than or equal to 0.1?
Result: Not fulfilled

Query: Please indicate if the recorded amyloid nucleation score for SLWLSEVVCMDTVHQEIIMA meets or exceeds 0.1.
Result: Not fulfilled

Query: Confirm if amyloid nucleation score reported for the substance FSVRLISFRSSLLLMSQDLL is 0.1 or above.
Result: Fulfilled

Query: Quick check: does RCIYWHVTVIFIMDIWVRTY have amyloid nucleation score greater than or equal to 0.1?
Result: Fulfilled
